Data credit: ChEMBL document CHEMBL1153373

- System: Staphylococcus epidermidis
- assay overview: Antimicrobial activity against Staphylococcus epidermidis after 24 hrs by standard microtiter dilution method
- Assay type: functional
Square brackets hold non-standard residues; d marks the D form. Peptide text beside a SMILES is read from it.
endpoint name: MIC (µg/mL)
Please give a number only; it is taken to be in µg/mL.

[
  {
    "compound": "CC(C)C[C@@H]1NC(=O)[C@H](CCCCN)NC(=O)[C@H](C(C)C)NC(=O)[C@H](CCCCN)NC(=O)[C@@H]2CCCN2C(=O)[C@@H](Cc2ccc(O)cc2)NC(=O)[C@H](CCCCN)NC(=O)[C@H](CCCCN)NC(=O)[C@H](C(C)C)NC(=O)[C@@H]2CCCN2C(=O)[C@@H](Cc2ccc(O)cc2)NC1=O (cyclo(VKK[dY]PKVKL[dY]P))",
    "tgt": "Staphylococcus epidermidis",
    "MIC (µg/mL)": 256
  }
]

As a next step, examine the compound that follows.
Ask: Quick one: MIC for CC(C)C[C@@H]1NC(=O)[C@H](CCCCN)NC(=O)[C@H](C(C)C)NC(=O)[C@@H]2CCCN2C(=O)[C@@H](Cc2ccc(O)cc2)NC(=O)[C@H](CC(C)C)NC(=O)[C@H](CCCCN)NC(=O)[C@H](C(C)C)NC(=O)[C@H](CCCCN)NC(=O)[C@H](CC(C)C)NC(=O)[C@H](CCCCN)NC(=O)[C@@H]2CCCN2C(=O)[C@@H](Cc2ccc(O)cc2)NC(=O)[C@H](CCCCN)NC(=O)[C@H](C(C)C)NC(=O)[C@H](CCCCN)NC1=O (cyclo(VKLKVK[dY]PKLKVKL[dY]P)) ?
Reply: 2

---

- Test system: Streptococcus mitis
- assay overview: Antimicrobial activity against Streptococcus mitis after 24 hrs by standard microtiter dilution method
- Format: functional
Square brackets hold non-standard residues; d marks the D form. Peptide text beside a SMILES is read from it. Orn = NCCC[C@H](N)C(=O)O
endpoint name: MIC (µg/mL)
Answer format: numeric, µg/mL implied, no suffix.

[
  {
    "molecule": "CC(C)C[C@@H]1NC(=O)[C@H](CCCCN)NC(=O)[C@H](C(C)C)NC(=O)[C@@H]2CCCN2C(=O)[C@@H](Cc2ccc(O)cc2)NC(=O)[C@H](CC(C)C)NC(=O)[C@H](CCCCN)NC(=O)[C@H](C(C)C)NC(=O)[C@H](CCCCN)NC(=O)[C@H](CC(C)C)NC(=O)[C@H](CCCCN)NC(=O)[C@@H]2CCCN2C(=O)[C@@H](Cc2ccc(O)cc2)NC(=O)[C@H](C(C)C)NC(=O)[C@H](CCCCN)NC1=O (cyclo(VKLKV[dY]PKLKVKL[dY]P))",
    "tgt": "Streptococcus mitis",
    "MIC / µg/mL": 0.5
  },
  {
    "molecule": "CC(C)C[C@@H]1NC(=O)[C@H](CCCCN)NC(=O)[C@H](C(C)C)NC(=O)[C@@H]2CCCN2C(=O)[C@@H](Cc2ccc(O)cc2)NC(=O)[C@H](CC(C)C)NC(=O)[C@H](CCCCN)NC(=O)[C@H](C(C)C)NC(=O)[C@H](CCCCN)NC(=O)[C@H](CC(C)C)NC(=O)[C@@H]2CCCN2C(=O)[C@@H](Cc2ccc(O)cc2)NC(=O)[C@H](C(C)C)NC1=O",
    "tgt": "Streptococcus mitis",
    "MIC / µg/mL": 1
  }
]

Ask: MIC for CC(C)C[C@@H]1NC(=O)[C@H](CCCCN)NC(=O)[C@@H]2CCCN2C(=O)[C@@H](Cc2ccc(O)cc2)NC(=O)[C@H](CCCCN)NC(=O)[C@H](C(C)C)NC(=O)[C@H](CC(C)C)NC(=O)[C@H](CCCCN)NC(=O)[C@H](C(C)C)NC(=O)[C@@H]2CCCN2C(=O)[C@@H](Cc2ccc(O)cc2)NC(=O)[C@H](CC(C)C)NC(=O)[C@H](CCCCN)NC(=O)[C@H](C(C)C)NC(=O)[C@H](CCCCN)NC1=O (cyclo(VKLVK[dY]PKLKVKL[dY]P)) ?
Reply: 4

Ask: What value of measured MIC is listed for CC(C)C[C@@H]1NC(=O)[C@H](CCCN)NC(=O)[C@H](C(C)C)NC(=O)[C@@H]2CCCN2C(=O)[C@@H](Cc2ccccc2)NC(=O)[C@H](CC(C)C)NC(=O)[C@H](CCCN)NC(=O)[C@H](C(C)C)NC(=O)[C@@H]2CCCN2C(=O)[C@@H](Cc2ccccc2)NC1=O [GRAMICIDIN S] (cyclo(L[dF]PV[Orn]L[dF]PV[Orn])) ?
Reply: 0.5
